These measurements were taken from patent US20260209316A1.

- Test Target: T1, mucin domain-deleted Sudan GP (GPdMuc) (Sudan virus (SUDV), UniProt Q7T9D9 33-632)
- T1 construct: also called Sudan GPdMuc; GP(S)dMuc
- Procedure Text: ELISA on coated GP
Please go through the items and note down their EC50.
Provide the reading as a plain figure in µg/mL.

Query: Using the record for antibody 102S (antibody, V domains shown) VH: EVQLVESGGGLVQPGGSLRLSCSASGFTFHSYDMNWARQAPGKGLEWVSEISSSGQSKNYADSVRGRFTISRDNAKNSLYLQINSLRSEDTAVYYCARVGFVAKFGSDFSITHGTYYLDYWGQGTLVTVSS VL: QLVLTQSPATLSLSPGERATLSCRASQSVSNYLAWYQQKPGQAPRLLIYDASNRAPGVPARFSGSGSGTDFSLTISSLEPEDFAVYYCLQRSNWPPWTFGQGTKVEIK , report its EC50.
Result: 0.09

Query: For antibody 315S (antibody, V domains shown) VH: EVQLVESGGGVVQPGRSLRLSCAASGFTFKTYTMHWVRQAPGKGLEWVAVITDDGVNKKYADSVKGRFTISRDNSKNTLYLQMNSLRLEDTAVYYCARSVVVLAAYPLDYWGQGTMVTVSS VL: DIQMTQSPSSLSASVGDRVTITCRASQTISTYLHWYQQRPGKAPKLLIYAASSLQSGVPSRVSGSGSGTDFTLTITSLQPEDFATYYCLQTYSLPLTFGGGTNVEIK , what is its reported EC50?
Result: 0.01

Query: Item antibody 578S (antibody, V domains shown) VH: EVQLVESGGGVVQPGRSLRLSCAASGFTFSSYELHWVRQAPGKGLEWVAVISYDGSSKYYADSLKGRFTISRDNSKNTLSLQMNSLRAEDTAMYYCVRQSEAYCSDGRCDWRRALDIWGQGTMVTVSP VL: DIQMTQSPSSLSASVGDRVTITCQASQDIKNYLNWYQQKPGKAPKLLIYDVSKLETGVPSRFSGSGSGTDFSFTISSLQPEDIATYYCQQYDNLPSYTFGQGTKLEIK has what recorded EC50?
Result: 0.09

Query: Data request, read-out EC50, for antibody 528S (antibody, V domains shown) VH: EVQLAESGGGVVQPGRSLRLSCAASGFTFNSYGMHWVRQAPGKGLEWVAVIWDDGSKKYYADSVKGRFTISRDNSKNTLFLQMNSLRAEDTAVYYCARETIMFTFGEVIVSSRDNYYMDVWGKGTTVTVSS VL: EIVLTQSPATLSLSPGERATLSCRASQSVSNYLAWYQQKPGQAPRLLIYDASTRAIGIPARFSGVGSGTDFTLTISSLEPEDFAVYYCQQRSNWPPLTFGGGTKVEIK
Result: 0.03

Query: Which EC50 reading was recorded for the binder antibody 203S (antibody, V domains shown) VH: QVQLVQSGAEVKKPGSSVKVSCKASGGTFSSYAISWVRQAPGQGLEWLGRILPALGLANYAQKYQDRVKITADKSTSTAYMELSRLGSEDTAVYYCARDRWVGAARRGQYFDYWGQGTQVTVSS VL: DIQMTQSPATLSASVGDRVTITCRASQSIGTWLAWYQQKPGKAPKLLIYDASSLESGVPPRFSGSGSETEFTLTISSLQPDDFATYYCHQYKSYSYTFGQGTKLEIK ?
Result: 0.57
